target: WT AChE1 (Culex pipiens, UniProt Q86GC8); experiment: AChE assay (Ellman), dose-response on recombinant WT AChE1; assay type: biochemical; design: made in house; host or cells: Drosophila S2 cells; conditions: recombinant wild-type C. pipiens AChE1; 15 min incubation; acetylthiocholine; read-out: IC50 WT
Sequence (Q86GC8 37-702): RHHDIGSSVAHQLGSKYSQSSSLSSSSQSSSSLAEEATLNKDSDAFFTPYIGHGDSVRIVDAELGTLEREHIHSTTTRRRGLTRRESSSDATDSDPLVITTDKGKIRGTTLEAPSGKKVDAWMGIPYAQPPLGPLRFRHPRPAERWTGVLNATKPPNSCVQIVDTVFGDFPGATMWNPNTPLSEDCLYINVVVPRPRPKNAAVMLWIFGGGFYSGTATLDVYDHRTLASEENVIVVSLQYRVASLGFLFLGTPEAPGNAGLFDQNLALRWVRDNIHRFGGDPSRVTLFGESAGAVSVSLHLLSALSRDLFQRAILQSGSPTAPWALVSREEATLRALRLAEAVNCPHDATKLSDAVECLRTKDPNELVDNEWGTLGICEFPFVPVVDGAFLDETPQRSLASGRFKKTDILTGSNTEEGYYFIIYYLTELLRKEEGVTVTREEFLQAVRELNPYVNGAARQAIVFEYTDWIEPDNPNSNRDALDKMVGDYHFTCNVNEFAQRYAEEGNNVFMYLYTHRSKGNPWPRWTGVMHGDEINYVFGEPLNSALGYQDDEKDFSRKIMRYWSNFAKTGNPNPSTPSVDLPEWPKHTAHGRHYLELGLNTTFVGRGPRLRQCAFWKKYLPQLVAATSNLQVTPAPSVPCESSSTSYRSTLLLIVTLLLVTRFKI
pIC50: −log10 of the molar value.
Where pIC50 equals or exceeds 5, the correct label is 1; where it does not, the label is -1.

Ask: Exam item: decide whether the reported pIC50 for O=C1NC(=O)N(c2ccccc2)C(=O)C1=Cc1ccc(N2CCOCC2)s1 [PTF-71] is at least 5.
Reply: -1

Ask: Exam item: decide whether the reported pIC50 for Cc1ccc(C=C2C(=O)NC(=O)N(c3ccccc3)C2=O)s1 [PTF-68] is at least 5.
Reply: 1

Ask: Exam item: decide whether the reported pIC50 for CN1C(=O)C(=Cc2ccc(-c3ccc(S(N)(=O)=O)cc3)o2)C(=O)N(C)C1=O [PTF-46] is at least 5.
Reply: 1

Ask: Exam item: decide whether the reported pIC50 for CC(C)(C)N=C1NC(=O)C(=Cc2ccco2)C(=O)N1c1ccccc1 [PTF-65] is at least 5.
Reply: -1
